Test system: BGC-823
PROCEDURE_TEXT: Potency index, ratio of etoposide IC50 to test compound IC50 for antiproliferative activity against human BGC-823 cells
Type: functional
ENDPOINT_LABEL: Ratio IC50

[
  {
    "QUERY_SMILES": "COc1cc([C@@H]2c3cc4c(cc3[C@@H](Nc3ncccc3F)[C@H]3COC(=O)[C@H]23)OCO4)cc(OC)c1OC",
    "ENDPOINT_LABEL": "Ratio IC50",
    "OBSERVED_RESULT": 3.3
  },
  {
    "QUERY_SMILES": "COc1cc([C@@H]2c3cc4c(cc3[C@@H](Nc3ncccc3F)[C@H]3COC(=O)[C@H]23)OCO4)cc(OC)c1O",
    "ENDPOINT_LABEL": "Ratio IC50",
    "OBSERVED_RESULT": 3.3
  },
  {
    "QUERY_SMILES": "COc1cc([C@@H]2c3cc4c(cc3[C@@H](n3ccnc3)[C@H]3COC(=O)[C@H]23)OCO4)cc(OC)c1OC",
    "ENDPOINT_LABEL": "Ratio IC50",
    "OBSERVED_RESULT": 5.8
  },
  {
    "QUERY_SMILES": "COc1cc([C@@H]2c3cc4c(cc3[C@H](OC(=O)/C=C(C)/C=C/C=C(C)/C=C/C3=C(C)CCCC3(C)C)[C@H]3COC(=O)[C@H]23)OCO4)cc(OC)c1OC",
    "ENDPOINT_LABEL": "Ratio IC50",
    "OBSERVED_RESULT": 6.8
  }
]

###

Measured selectivity ratio, listed per entry.
PROCEDURE_TEXT: Selectivity ratio of IC50 for human L02 cells to IC50 for human HeLa cells
Assay type: toxicity
TEST_CONTEXT: read-out: Ratio IC50

[
  {
    "COMPOUND": "COc1cc([C@@H]2c3cc4c(cc3[C@H](OC(=O)CCCCC3CCSC(c5ccc(C(F)(F)F)cc5)S3)[C@H]3COC(=O)[C@H]23)OCO4)cc(OC)c1OC (stereo partly drawn)",
    "selectivity ratio": "≥ 9.7"
  },
  {
    "COMPOUND": "COc1cc([C@@H]2c3cc4c(cc3[C@H](OC(=O)CCCCC3CCSC(c5ccc(C)cc5)S3)[C@H]3COC(=O)[C@H]23)OCO4)cc(OC)c1OC (stereo partly drawn)",
    "selectivity ratio": "≥ 9.7"
  },
  {
    "COMPOUND": "COc1cc([C@@H]2c3cc4c(cc3[C@H](OC(=O)CCCCC3CCSC(c5cccc(C(F)(F)F)c5)S3)[C@H]3COC(=O)[C@H]23)OCO4)cc(OC)c1OC (stereo partly drawn)",
    "selectivity ratio": "≥ 9.7"
  }
]

###

System: A549
PROCEDURE_TEXT: Potency index, ratio of etoposide IC50 to test compound IC50 for antiproliferative activity against human A549 cells
Assay type: functional
Documented Ratio IC50 across a set of compounds

[
  {
    "QUERY_SMILES": "COc1cc([C@@H]2c3cc4c(cc3[C@@H](NC(=S)NC(=O)c3ccccc3)[C@H]3COC(=O)[C@H]23)OCO4)cc(OC)c1OC",
    "Ratio IC50": 49
  },
  {
    "QUERY_SMILES": "COc1cc([C@@H]2c3cc4c(cc3[C@@H](Nc3ncccc3F)[C@H]3COC(=O)[C@H]23)OCO4)cc(OC)c1O",
    "Ratio IC50": 3.3
  },
  {
    "QUERY_SMILES": "COc1cc([C@@H]2c3cc4c(cc3[C@@H](Nc3ncccc3F)[C@H]3COC(=O)[C@H]23)OCO4)cc(OC)c1OC",
    "Ratio IC50": 3.3
  },
  {
    "QUERY_SMILES": "COc1cc([C@@H]2c3cc4c(cc3[C@@H](n3ccnc3)[C@H]3COC(=O)[C@H]23)OCO4)cc(OC)c1OC",
    "Ratio IC50": 5.8
  },
  {
    "QUERY_SMILES": "COc1cc([C@@H]2c3cc4c(cc3[C@@H](n3cc(CO[C@H]5O[C@H](CO)[C@H](O)[C@H](O)[C@H]5O)nn3)[C@H]3COC(=O)[C@H]23)OCO4)cc(OC)c1O",
    "Ratio IC50": 2
  }
]

###

System: HCT-116
PROCEDURE_TEXT: Antiproliferative activity against human HCT116 cells
Format: functional, cell-based
ENDPOINT_LABEL: IC50 (nM)

[
  {
    "QUERY_SMILES": "COC(=O)c1ccc(-c2cn(CC(=O)O[C@H]3c4cc5c(cc4[C@@H](c4cc(OC)c(OC)c(OC)c4)[C@H]4C(=O)OC[C@@H]43)OCO5)nn2)cc1",
    "READOUT_UNITS": "nM",
    "OBSERVED_RESULT": 19.6
  }
]

###

Measured IC50, listed per entry.
System: B16
PROCEDURE_TEXT: Antiproliferative activity against […] cells incubated for 48 to 72 hrs by MTT assay
Assay type: functional, cell-based
TEST_CONTEXT: Mus musculus

[
  {
    "QUERY_SMILES": "COc1cc([C@@H]2c3cc4c(cc3[C@H](n3cc(C(C)(C)Oc5ccc([N+](=O)[O-])cc5)nn3)[C@H]3COC(=O)[C@H]23)OCO4)cc(OC)c1OC",
    "IC50 (nM)": 130
  },
  {
    "QUERY_SMILES": "COc1ccc(OC(C)(C)c2cn([C@H]3c4cc5c(cc4[C@@H](c4cc(OC)c(OC)c(OC)c4)[C@H]4C(=O)OC[C@@H]43)OCO5)nn2)cc1",
    "IC50 (nM)": 130
  },
  {
    "QUERY_SMILES": "COc1cc([C@@H]2c3cc4c(cc3[C@H](n3cc(COc5cccc([N+](=O)[O-])c5)nn3)[C@H]3COC(=O)[C@H]23)OCO4)cc(OC)c1OC",
    "IC50 (nM)": 130
  }
]

###

PROCEDURE_TEXT: Selectivity index, ratio of IC50 for human HFF cells to IC50 for human A549 cells
Type: toxicity
TEST_CONTEXT: pooled result: one value given for 20 cell lines, strains, targets or settings, read-out: Ratio IC50
ENDPOINT_LABEL: selectivity ratio

[
  {
    "QUERY_SMILES": "COC(=O)c1ccc(-c2cn(CC(=O)O[C@H]3c4cc5c(cc4[C@@H](c4cc(OC)c(OC)c(OC)c4)[C@H]4C(=O)OC[C@@H]43)OCO5)nn2)cc1",
    "ENDPOINT_LABEL": "selectivity ratio",
    "OBSERVED_RESULT": 3.5
  }
]

###

Tested on: BGC-823
PROCEDURE_TEXT: Antiproliferative activity against human BGC-823 cells incubated for 48 hrs by MTT assay
Assay type: functional, cell-based
TEST_CONTEXT: BGC-823, 48 h
Attribute: IC50

[
  {
    "QUERY_SMILES": "COc1cc([C@@H]2c3cc4c(cc3[C@@H](Nc3ncccc3F)[C@H]3COC(=O)[C@H]23)OCO4)cc(OC)c1O",
    "IC50": "0.06 µM"
  },
  {
    "QUERY_SMILES": "COc1cc([C@@H]2c3cc4c(cc3[C@@H](Sc3nc(N)nc5nc[nH]c35)[C@H]3COC(=O)[C@H]23)OCO4)cc(OC)c1OC",
    "IC50": "0.3 µM"
  },
  {
    "QUERY_SMILES": "COc1cc(C(=O)/C=C/c2ccc(F)cc2)ccc1OCc1cn([C@@H]2c3cc4c(cc3[C@@H](c3cc(OC)c(OC)c(OC)c3)[C@H]3C(=O)OC[C@@H]32)OCO4)nn1",
    "IC50": "0.53 µM"
  }
]

###

Test system: HepG2
PROCEDURE_TEXT: Antiproliferative activity against human HepG2 cells incubated for 48 hrs by MTT assay
Format: functional, cell-based
TEST_CONTEXT: HepG2, 48 h
ENDPOINT_LABEL: IC50 (nM)

[
  {
    "QUERY_SMILES": "COc1cc([C@@H]2c3cc4c(cc3[C@@H](O[C@H]3CC[C@@H](O)[C@@H](C(C)C)O3)[C@H]3COC(=O)[C@H]23)OCO4)cc(OC)c1O",
    "ENDPOINT_LABEL": "IC50",
    "READOUT_UNITS": "nM",
    "OBSERVED_RESULT": 41.6
  },
  {
    "QUERY_SMILES": "COc1cc([C@@H]2c3cc4c(cc3[C@@H](Sc3nc(N)nc5nc[nH]c35)[C@H]3COC(=O)[C@H]23)OCO4)cc(OC)c1OC",
    "ENDPOINT_LABEL": "IC50",
    "READOUT_UNITS": "nM",
    "OBSERVED_RESULT": 300
  },
  {
    "QUERY_SMILES": "COc1cc([C@@H]2c3cc4c(cc3[C@@H](Sc3ncnc5nc[nH]c35)[C@H]3COC(=O)[C@H]23)OCO4)cc(OC)c1OC",
    "ENDPOINT_LABEL": "IC50",
    "READOUT_UNITS": "nM",
    "OBSERVED_RESULT": 300
  },
  {
    "QUERY_SMILES": "COc1cc([C@@H]2c3cc4c(cc3[C@H](O)[C@H]3COC(=O)[C@H]23)OCO4)cc(OC)c1OC",
    "ENDPOINT_LABEL": "IC50",
    "READOUT_UNITS": "nM",
    "OBSERVED_RESULT": 4310
  },
  {
    "QUERY_SMILES": "COc1cc([C@@H]2c3cc4c(cc3[C@H](O[C@H]3CC[C@@H](O)[C@H](C(C)C)O3)[C@H]3COC(=O)[C@H]23)OCO4)cc(OC)c1OC",
    "ENDPOINT_LABEL": "IC50",
    "READOUT_UNITS": "nM",
    "OBSERVED_RESULT": 41.6
  },
  {
    "QUERY_SMILES": "CC[C@H]1O[C@H](O[C@@H]2c3cc4c(cc3[C@@H](c3cc(OC)c(O)c(OC)c3)[C@H]3C(=O)OC[C@@H]32)OCO4)CC[C@H]1O",
    "ENDPOINT_LABEL": "IC50",
    "READOUT_UNITS": "nM",
    "OBSERVED_RESULT": 41.6
  }
]
